All figures here come from ChEMBL document CHEMBL3988442.

- tested-target: Tyrosyl-tRNA synthetase, putative (Trypanosoma cruzi (strain CL Brener)) (UniProt Q4DSP6)
- Sequence (Q4DSP6 as listed by the source): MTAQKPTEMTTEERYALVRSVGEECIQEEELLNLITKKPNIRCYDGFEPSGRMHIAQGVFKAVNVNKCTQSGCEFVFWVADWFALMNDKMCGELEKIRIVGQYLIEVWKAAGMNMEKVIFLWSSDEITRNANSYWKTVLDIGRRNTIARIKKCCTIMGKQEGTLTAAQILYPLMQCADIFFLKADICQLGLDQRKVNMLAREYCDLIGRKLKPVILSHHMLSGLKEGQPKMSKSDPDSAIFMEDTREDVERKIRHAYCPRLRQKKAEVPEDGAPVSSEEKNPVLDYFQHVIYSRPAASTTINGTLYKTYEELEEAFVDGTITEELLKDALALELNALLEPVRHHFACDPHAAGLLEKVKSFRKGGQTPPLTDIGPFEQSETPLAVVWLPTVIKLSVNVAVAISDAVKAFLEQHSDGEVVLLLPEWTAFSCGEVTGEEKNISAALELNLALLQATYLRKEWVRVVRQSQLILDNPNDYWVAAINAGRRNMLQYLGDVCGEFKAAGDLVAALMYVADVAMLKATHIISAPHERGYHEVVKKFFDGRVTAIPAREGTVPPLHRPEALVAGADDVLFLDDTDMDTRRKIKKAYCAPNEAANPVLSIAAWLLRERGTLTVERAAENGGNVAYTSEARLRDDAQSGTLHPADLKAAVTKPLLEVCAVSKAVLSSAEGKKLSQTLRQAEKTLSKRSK
- assay-protocol: Trypanosoma cruzi tyrosyl tRNA synthetase (TcYRS) SOP
- Type: functional
- Set-up: scale not given: direction of the effect not stated beside the values
- assay-conditions: 30 µM
value-kind: Percent Effect (%)
Number in %, nothing else.

The following compounds have reported results that may help.
CN(C)C(=O)[C@@H]1C[C@@H]2CCN(Cc3ccc4c(c3)OCO4)C[C@@H]2O1    -2.56
Cc1ccc2c(c1)OCCCC2NCc1nnc2n1CCCCC2 (stereo unspecified)    6.17
Fc1ccc(OCc2noc(CN3CCc4cncnc4C3)n2)cc1    21.9

Observed Percent Effect on Tyrosyl-tRNA synthetase, putative (Trypanosoma cruzi (strain CL Brener)) (UniProt Q4DSP6) for `CC(C)n1ccnc1C1CCN(C(=O)c2ccccc2)CC1` , please.
19.5

Could you share what Percent Effect was measured for Cn1nnc2c1CCN(Cc1ccccc1)C2COCC1CC1 (stereo unspecified) , tested on Tyrosyl-tRNA synthetase, putative (Trypanosoma cruzi (strain CL Brener)) (UniProt Q4DSP6)?
24.4

Notebook entry, Tyrosyl-tRNA synthetase, putative (Trypanosoma cruzi (strain CL Brener)) (UniProt Q4DSP6) assay: Percent Effect of `CCN(C(=O)Nc1cccnc1OC)C1CC1` = ?
19.5

----------
- tested-target: Sialic acid-binding Ig-like lectin 9 (Homo sapiens) (UniProt Q9Y336)
- Sequence (Q9Y336 whole entry): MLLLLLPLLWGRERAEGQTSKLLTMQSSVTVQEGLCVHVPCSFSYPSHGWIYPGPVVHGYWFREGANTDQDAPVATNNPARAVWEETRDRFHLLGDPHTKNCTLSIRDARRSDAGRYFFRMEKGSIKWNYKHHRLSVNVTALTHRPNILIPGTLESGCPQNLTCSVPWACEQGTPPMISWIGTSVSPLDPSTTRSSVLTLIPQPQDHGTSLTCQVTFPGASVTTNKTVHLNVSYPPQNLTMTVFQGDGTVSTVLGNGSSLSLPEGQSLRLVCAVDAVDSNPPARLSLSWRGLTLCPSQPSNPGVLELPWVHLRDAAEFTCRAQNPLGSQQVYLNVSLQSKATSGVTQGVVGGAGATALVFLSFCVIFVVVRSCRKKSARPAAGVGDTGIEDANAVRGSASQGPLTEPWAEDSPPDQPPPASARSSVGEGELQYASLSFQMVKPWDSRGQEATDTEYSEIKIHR
- assay-protocol: Hs-Siglec9 ALPHAscreen SOP 20170721
- Parameters: scale not given: direction of the effect not stated beside the values
- assay-conditions: 10 µM
Recorded Percent Effect, one value per entry.
Could you give me the number in %? Just the number is fine.

Consider the following illustrative entries.
CC(C)(C)c1n[nH]c(C2CN(C(=O)CCc3cscn3)CCO2)n1 (stereo unspecified)    15.8
COc1ccc(C2=C(C)C(N3CCc4ccccc4C3)=NS2(=O)=O)cc1    -18
CC(=O)NC1CCCN(C(=O)NCc2cccnc2N(C)C)C1 (stereo unspecified)    3.66

Which Percent Effect value belongs to `O=C(NC1CC1)[C@@H]1CCO[C@@H]2CCN(C3CCOCC3)C[C@H]21` ?
6.23

Tell me the measured Percent Effect of CCCN1CC(C(=O)Nc2ccccn2)CC1=O (stereo unspecified) , please.
5.93

Any idea what Percent Effect was measured for N#Cc1ccccc1OCCN1CCCC1Cn1cccn1 (stereo unspecified) ?
8.98

----------
Percent Effect listing for selected compounds.
- Species: Homo sapiens
- assay-protocol: To identify inhibition of the IFN signalling (Jak-Stat) pathway via expression of an eGFP reporter gene under the control of an IFN-stimulated response element (ISRE) containing MxA promoter.
- Assay type: functional
- Design: scale not given: direction of the effect not stated beside the values
- assay-conditions: 30 µM
Give your result in % as a bare value.

# annotated cases, reported Percent Effect shown
CC(C)OCCC(=O)N(C)CCCc1cc(-c2ccccc2)no1    22
O=C1[C@@H]2CCN(Cc3ccoc3)C[C@@H]2OCCN1c1ccccc1    5.67
Cc1cc2c(=O)n3c(nc2s1)CCN(Cc1ccncc1)CC3    19.7
CO[C@@H]1CC[C@H]2[C@H]1OCCN2C(=O)COc1ccc(F)cc1    3.76
c1coc(-c2noc(CN3CCCC(Cn4cncn4)C3)n2)c1 (centres undefined)    3.63
Cc1cc(=O)[nH]c(SCC(=O)N(C)CC2Cc3ccccc3CN2C)n1 (centres undefined)    -12.2
Cc1cnn(CCC(=O)N2CCN(c3ncccc3Cl)CC2)c1    18.8
CCc1ccc(O)c(C(=O)NC2CCN(Cc3ccncc3)CC2)c1    44.9
c1cnn(CC2CN(Cc3ccc(-n4ccnc4)cc3)CCO2)c1 (centres undefined)    0.886
Cc1nc(C)n(CC2CCCN2CC(=O)NCCc2ccccc2)n1 (centres undefined)    -18.8

Could you tell me which Percent Effect is on file for `CCS(=O)(=O)N(C)C1CCN(C(=O)c2cccc(Cl)c2)CC1` ?
-0.31

Consider the compound `CCn1c(C(=O)N2CCN(C(=O)COC)CC2)cc2ccccc21` and give its measured Percent Effect.
10.3

Form field: reported Percent Effect of Cc1occc1C(=O)NCc1ccc(N2CCCC(C(N)=O)C2)cc1 (centres undefined)
16.5

Can you look up the measured Percent Effect of Cc1cnc(CN(C)C2CCN(CCn3cc(C#N)cn3)C2)o1 (centres undefined) for me?
6.73

What value of measured Percent Effect is listed for `Cc1ccc(CN2CCCn3nnc(COCC4CC4)c3C2)s1` ?
12.7

Any idea what its Percent Effect is? The compound is O=C(NCC(O)CN1CCc2ccccc2C1)Nc1cccnc1 (centres undefined)
14.5

Which Percent Effect is listed for `COc1ccc(CNCc2ccc(N3CCCCC3)nc2)cc1OC` ?
2.97

Suppose we examine the compound Cc1ccc(CNC(=O)CN2CCCC(Cn3cncn3)C2)s1 (centres undefined) ; what Percent Effect value has been reported?
-8.31

I would be grateful if you could share the reported Percent Effect for `Cc1cc2ccccc2n1CCC(=O)NCc1ncc[nH]1` .
13.5

Would you mind telling me what Percent Effect value was observed for CN(Cc1cccnc1)CC1CCCN1c1cccnn1 (centres undefined) ?
27.4

Return reported Percent Effect; argument: `COCCC(=O)N1CC2(CCN(Cc3cccc(Cl)c3)CC2)C1`
6

Data request, read-out Percent Effect, for COc1c(C2CCCN2C(=O)Cc2c(C)noc2C)c(C)nn1C (centres undefined)
-12.4

Item under review: FC(F)(F)Cc1noc(CN2CCCC2c2noc(C3CC3)n2)n1 (centres undefined) . Reported Percent Effect?
7.37

I am curious: what Percent Effect value has been reported for `CN(CCC(F)(F)F)C(=O)[C@H]1CSCN1C(=O)OC(C)(C)C` ?
-11.9
